Tested on: HCT-116 colon
Test: NCI-60 one-dose screen, 48 h (100 = growth as untreated, 0 = no growth, -100 = all killed)
Details: 10 µM unless noted
About 83,000 compounds went through this panel and 20% of them were active in at least one assay; those are over-represented in the sample as a whole.
experimental readout: growth (%)

1) CC(C)=CCC[C@H](C(=O)O)[C@@H]1CC[C@]2(C)C3=C(CC[C@@]12C)[C@@]1(C)CC[C@H](O)C(C)(C)[C@@H]1CC3	78.5
2) C/C(=C\c1ccn(-c2ccc(N)cc2C(F)(F)F)n1)[C@@H]1C[C@@H]2O[C@]2(C)CCC[C@H](C)[C@H](O)[C@@H](C)C(=O)C(C)(C)[C@@H](O)CC(=O)O1	12.1
3) C#C[C@]1(OC(=O)CCCCCC)CC[C@H]2[C@@H]3CCC4=CC(=O)CC[C@@H]4[C@H]3CC[C@@]21C	12
4) O=[N+]([O-])c1cc([N+](=O)[O-])c(Cl)cc1Cl	-98.8
5) C/C(=C\c1ccn(-c2ccc(N)cc2)n1)[C@@H]1C[C@@H]2O[C@]2(C)CCC[C@H](C)[C@H](O)[C@@H](C)C(=O)C(C)(C)[C@@H](O)CC(=O)O1	10.4
6) Cc1ccc(S(=O)(=O)F)cc1C(=O)O	111
7) C=COC(=O)CCN1CC1	103
8) Oc1c(CCl)cc(Cl)cc1CCl	115
9) O=C(O)C1C(C(=O)O)C2(Cl)C(Cl)=C(Cl)C1(Cl)C2(Cl)Cl.[Hg] (stereo not drawn)	90.4
10) CCC1(C)CC(CCNCc2ccccc2O)(c2ccc(C)cc2)CCO1 (stereo not drawn)	109
11) O=NNc1ccccn1	44.4
12) CCOC(=O)[C@@H](C)C[C@H](Cc1ccccc1)NC(=O)c1csc([C@@H](C[C@H](C(C)C)N(C)C(=O)[C@H](CC)NC(=O)[C@H]2CCCCN2C)OC(C)=O)n1	-7.81
13) O=C1C2C(C(=O)[N]1[Hg][c]1cccs1)C1(Cl)C(Cl)=C(Cl)C2(Cl)C1(Cl)Cl (stereo not drawn)	-31.9
14) CC1=C(CCCNS(C)(=O)=O)C2=C(C)C3(CC3)[C@@](C)(O)C(=O)C2=C1	1.02
15) Nc1ccc2c(c1)oc1ccccc12	99.8
16) CC(C)OC(=O)[C@H](C)NP(=O)(Oc1ccccc1)C1CCCN(O)C1=O (stereo partly drawn)	89.6
17) CCOC(=O)[C@@H](C)C[C@H](Cc1ccccc1)NC(=O)c1csc([C@@H](C[C@H](C(C)C)N(C)C(=O)CNC(=O)[C@H]2CCCCN2C)OC(C)=O)n1	3.7
18) CC(C)(C)C(=O)OCOP(=O)(NCc1ccccc1)C1CCCN(O)C1=O (stereo not drawn)	7

Recorded values, source PubChem BioAssay (NCI).
